Source: the supplement of paper PMC8617591

Test system: Mycobacterium tuberculosis Erdman (autoluminescent)
experiment.summary: GRinf, maximum normalised growth rate inhibition (three-drug combination) (unitless (-1 to 1)); higher = less effect (negative = killing)
condition.notes: in vitro model: dormancy (butyrate + nitrate, low O2); time point: terminal (~4-5 doublings, model-specific)
Tag: true (1) if measured GRinf is not below -0.2, false (0) if it is.

Worked examples follow.
compound: COc1nc2ccc(Br)cc2cc1[C@@H](c1ccccc1)[C@@](O)(CCN(C)C)c1cccc2ccccc12 [bedaquiline] + NNC(=O)c1ccncc1 [isoniazid] + CO[C@H]1/C=C/O[C@@]2(C)Oc3c(C)c(O)c4c(O)c(c(/C=N/N5CCN(C6CCCC6)CC5)c(O)c4c3C2=O)NC(=O)/C(C)=C\C=C\[C@H](C)[C@H](O)[C@@H](C)[C@@H](O)[C@@H](C)[C@H](OC(C)=O)[C@@H]1C [rifapentine]
label.class: true (1)
--
compound: CC[C@@H](CO)NCCN[C@@H](CC)CO [ethambutol] + O=[N+]([O-])c1cn2c(n1)OC[C@@H](OCc1ccc(OC(F)(F)F)cc1)C2 [pretomanid] + CO[C@H]1/C=C/O[C@@]2(C)Oc3c(C)c(O)c4c(O)c(c(/C=N/N5CCN(C)CC5)c(O)c4c3C2=O)NC(=O)/C(C)=C\C=C\[C@H](C)[C@H](O)[C@@H](C)[C@@H](O)[C@@H](C)[C@H](OC(C)=O)[C@@H]1C [rifampicin]
label.class: true (1)
--
compound: COc1nc2ccc(Br)cc2cc1[C@@H](c1ccccc1)[C@@](O)(CCN(C)C)c1cccc2ccccc12 [bedaquiline] + NC(=O)c1cnccn1 [pyrazinamide] + CO[C@H]1/C=C/O[C@@]2(C)Oc3c(C)c(O)c4c(O)c(c(/C=N/N5CCN(C)CC5)c(O)c4c3C2=O)NC(=O)/C(C)=C\C=C\[C@H](C)[C@H](O)[C@@H](C)[C@@H](O)[C@@H](C)[C@H](OC(C)=O)[C@@H]1C [rifampicin]
label.class: true (1)

Next:
Item CC(=O)NC[C@H]1CN(c2ccc(N3CCOCC3)c(F)c2)C(=O)O1 [linezolid] + NC(=O)c1cnccn1 [pyrazinamide] + CO[C@H]1/C=C/O[C@@]2(C)Oc3c(C)c(O)c4c(O)c(c(/C=N/N5CCN(C)CC5)c(O)c4c3C2=O)NC(=O)/C(C)=C\C=C\[C@H](C)[C@H](O)[C@@H](C)[C@@H](O)[C@@H](C)[C@H](OC(C)=O)[C@@H]1C [rifampicin] with GRinf of -0.2 or above? false (0)
